Data provenance is the supplement of paper PMC9112550.

- Tested on: Escherichia coli TOP10;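 further: peptides expressed intracellularly from a pBAD plasmid library in pooled LB shake-flask culture, induced with 0.3% L-arabinose, DNA abundance read by NGS, three biological replicates, DESeq2 with apeglm shrinkage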
- Experiment: shrunken log2 fold change of peptide-encoding DNA abundance (4.5 h post-induction vs induction); higher = less antimicrobial activity (less host growth inhibition)
- Test context: time post-induction: 4.5 h; library: site-saturation at positions 5, 18, 19, 20
Where shrunken log2 fold change equals or exceeds 0.1, the correct label is true (1); where it does not, the label is false (0).

[
  {
    "Chain sequence": "RRIRCRPPRLPRPRPRPPRSPRP",
    "Assigned class": "true (1)"
  },
  {
    "Chain sequence": "RRIRPRPPRLPRPRPRPYNYPRP",
    "Assigned class": "false (0)"
  },
  {
    "Chain sequence": "RRIRHRPPRLPRPRPRPNSPPRP",
    "Assigned class": "false (0)"
  },
  {
    "Chain sequence": "RRIRPRPPRLPRPRPRPRPRPRP",
    "Assigned class": "true (1)"
  },
  {
    "Chain sequence": "RRIRPRPPRLPRPRPRPCSIPRP",
    "Assigned class": "false (0)"
  },
  {
    "Chain sequence": "RRIRSRPPRLPRPRPRPVTFPRP",
    "Assigned class": "false (0)"
  },
  {
    "Chain sequence": "RRIRWRPPRLPRPRPRPQYIPRP",
    "Assigned class": "false (0)"
  },
  {
    "Chain sequence": "RRIRNRPPRLPRPRPRPIMFPRP",
    "Assigned class": "false (0)"
  },
  {
    "Chain sequence": "RRIRTRPPRLPRPRPRPHWHPRP",
    "Assigned class": "false (0)"
  },
  {
    "Chain sequence": "RRIRVRPPRLPRPRPRPVACPRP",
    "Assigned class": "true (1)"
  },
  {
    "Chain sequence": "RRIRARPPRLPRPRPRPDDMPRP",
    "Assigned class": "true (1)"
  },
  {
    "Chain sequence": "RRIRGRPPRLPRPRPRPVYGPRP",
    "Assigned class": "false (0)"
  },
  {
    "Chain sequence": "RRIRYRPPRLPRPRPRPMLKPRP",
    "Assigned class": "false (0)"
  },
  {
    "Chain sequence": "RRIRSRPPRLPRPRPRPHPQPRP",
    "Assigned class": "false (0)"
  },
  {
    "Chain sequence": "RRIRQRPPRLPRPRPRPLMEPRP",
    "Assigned class": "false (0)"
  },
  {
    "Chain sequence": "RRIRCRPPRLPRPRPRPHAGPRP",
    "Assigned class": "true (1)"
  },
  {
    "Chain sequence": "RRIRRRPPRLPRPRPRPGDVPRP",
    "Assigned class": "true (1)"
  },
  {
    "Chain sequence": "RRIRVRPPRLPRPRPRPTHDPRP",
    "Assigned class": "true (1)"
  },
  {
    "Chain sequence": "RRIRQRPPRLPRPRPRPLDAPRP",
    "Assigned class": "true (1)"
  },
  {
    "Chain sequence": "RRIRHRPPRLPRPRPRPFLEPRP",
    "Assigned class": "false (0)"
  },
  {
    "Chain sequence": "RRIRPRPPRLPRPRPRPDYKPRP",
    "Assigned class": "false (0)"
  },
  {
    "Chain sequence": "RRIRQRPPRLPRPRPRPHEGPRP",
    "Assigned class": "false (0)"
  },
  {
    "Chain sequence": "RRIRVRPPRLPRPRPRPDGDPRP",
    "Assigned class": "false (0)"
  },
  {
    "Chain sequence": "RRIRTRPPRLPRPRPRPICTPRP",
    "Assigned class": "true (1)"
  },
  {
    "Chain sequence": "RRIRMRPPRLPRPRPRPERRPRP",
    "Assigned class": "true (1)"
  },
  {
    "Chain sequence": "RRIRLRPPRLPRPRPRPYGNPRP",
    "Assigned class": "false (0)"
  },
  {
    "Chain sequence": "RRIRYRPPRLPRPRPRPCFNPRP",
    "Assigned class": "false (0)"
  },
  {
    "Chain sequence": "RRIRVRPPRLPRPRPRPDQFPRP",
    "Assigned class": "false (0)"
  }
]
